Cited source: patent US20240245666A1

- Experiment: clinical;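 also: healthy volunteers, open-label single-center study, PK parameters from individual plasma concentration-time profiles by non-compartmental analysis, 7-day washout between treatment periods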
- Cond: human, plasma, oral, 40 mg
Assay Endpoint: half-life

Prompt: Give me measured half-life, please, for this molecule: O=C(Nc1ccc(OC(F)(F)Cl)cc1)c1cnc(N2CC[C@@H](O)C2)c(-c2ccn[nH]2)c1 [asciminib]
Response: 810 min
